- study_system: T1, PSMA Fab (Fab biotinylated for capture on neutravidin plates (site not given))
- T1 construct: also called Anti-PSMA Fab; 006 PSMA Fab
- assay_explanation: phage ELISA: biotinylated PSMA Fab on neutravidin plate, clonal phage supernatant, anti-M13 HRP; blocking buffer alone
The following binders are shown together with reported phage binding ELISA signal values.
Quick one: just the number, no unit, thanks!

Problem: Provide only the value of recorded phage binding ELISA signal for MRSVCVPSWMCSGF (peptide, not shown: large carriers, Clonal phage of the Peptide-180 library) [Phage-4012]
Result: 0.422
